biological target: Factor H (complement factor H), plasma (Homo sapiens, UniProt P08603 P08603:19-1231); experiment: SPR; binding stability; 10 mM MgCl2, pH 7.5; conditions: tags: LFB preparation (Biacore, amine-coupled NHS/EDC on CM5 chip, 5813 RU); Calbiochem 341274 also used in SELEX
Sequence (P08603 19-1231, one chain of several): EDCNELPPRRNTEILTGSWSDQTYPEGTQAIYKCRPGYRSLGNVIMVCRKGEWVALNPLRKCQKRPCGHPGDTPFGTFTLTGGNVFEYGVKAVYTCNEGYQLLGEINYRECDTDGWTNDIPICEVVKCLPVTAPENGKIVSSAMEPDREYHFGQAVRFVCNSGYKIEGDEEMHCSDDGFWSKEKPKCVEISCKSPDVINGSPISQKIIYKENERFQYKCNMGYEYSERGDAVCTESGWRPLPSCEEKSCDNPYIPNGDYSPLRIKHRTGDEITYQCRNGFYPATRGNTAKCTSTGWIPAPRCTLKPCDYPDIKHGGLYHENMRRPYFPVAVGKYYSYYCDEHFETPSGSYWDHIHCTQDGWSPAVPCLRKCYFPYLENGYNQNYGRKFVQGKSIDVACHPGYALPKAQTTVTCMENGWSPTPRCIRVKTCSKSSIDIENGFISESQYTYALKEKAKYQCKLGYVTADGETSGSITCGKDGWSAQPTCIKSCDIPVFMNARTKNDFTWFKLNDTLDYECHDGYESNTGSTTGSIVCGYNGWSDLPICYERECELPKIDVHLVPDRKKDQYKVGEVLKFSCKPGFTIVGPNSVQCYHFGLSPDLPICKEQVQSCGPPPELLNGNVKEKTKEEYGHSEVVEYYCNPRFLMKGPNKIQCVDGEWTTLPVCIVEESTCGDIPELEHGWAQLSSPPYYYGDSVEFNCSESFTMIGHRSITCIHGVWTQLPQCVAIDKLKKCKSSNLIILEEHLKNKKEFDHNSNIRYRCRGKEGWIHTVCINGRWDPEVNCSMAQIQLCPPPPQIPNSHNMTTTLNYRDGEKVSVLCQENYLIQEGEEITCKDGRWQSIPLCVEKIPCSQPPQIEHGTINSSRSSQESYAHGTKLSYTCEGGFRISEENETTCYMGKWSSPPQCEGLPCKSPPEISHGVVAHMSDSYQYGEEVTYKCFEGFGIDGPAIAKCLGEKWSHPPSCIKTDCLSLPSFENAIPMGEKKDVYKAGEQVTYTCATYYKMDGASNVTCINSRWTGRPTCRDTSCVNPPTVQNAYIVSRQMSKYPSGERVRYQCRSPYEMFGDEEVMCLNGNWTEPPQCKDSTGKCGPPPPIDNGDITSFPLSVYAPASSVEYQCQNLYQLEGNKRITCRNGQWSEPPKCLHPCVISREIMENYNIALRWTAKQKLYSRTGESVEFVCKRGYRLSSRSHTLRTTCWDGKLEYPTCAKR
OBSERVATION TYPE: binding signal (RU)
Give bare numbers, in RU.

>  <BINDER>
FAM1-10 (ssDNA) DNA: GGGTCAATGCCAGGTCTCTGGGGGAGGGAGGGTCTGGGGGTTATACGTCACTAGCAAAATCGGCTCGCAAGCAGTC

>  <READOUT NUMBER>
73.5

$$$$

Below are some binders; for each one, tell me its binding signal.
1. FAM2-1 (ssDNA) DNA: GGGTCAATGCCAGGTCTCCCGGTTACCGCGCTAAGCTTGGCGATGGTGTTAGTGGCTGATCGGCTCGCAAGCAGTC
2. FAM2-5 (ssDNA) DNA: GGGTCAATGCCAGGTCTCCCGGTTACCAACTATGATAGTATGGTGTTTGTGGCATGATCGGCTCGCAAGCAGTC

Result:
1: 29.6; 2: 22.2

Query: If you can, please state the reported binding signal value of FAM2-6 (ssDNA) DNA: GGGTCAATGCCAGGTCTCCCGGTTACCATCGAGGACGTCGCTTGGTGTTTGTGGCATGATCGGCTCGCAAGCAGTC .
Result: 22.1
